Tested on: SNB-19
EXPERIMENT SUMMARY: NCI tumour cell line growth inhibition, 48 h
The source made the active and inactive calls. Rule as the data show it: active = GI50 up to about 1.1 µM and inactive = higher.
# reported GI50; entries follow
PARAMETER MEASURED: GI50

{"COMPOUND": "C[C@H](CCc1nc(C#N)c(N)o1)[C@H]1CC[C@H]2[C@@H]3CCC4C[C@@H](O)CC[C@]4(C)[C@H]3C[C@@H](O)[C@]12C (stereo not given in full)", "ENDPOINT RESULT": "16.4 µM (inactive)"}
{"COMPOUND": "c1ccc2c(c1)[nH]c1c[nH]c3c4cccnc4nc-3c12", "ENDPOINT RESULT": "18.3 µM (inactive)"}
{"COMPOUND": "Cc1cc(-c2ccc(C(=O)C(Cl)(Cl)Cl)[nH]2)on1", "ENDPOINT RESULT": "40.8 µM (inactive)"}
{"COMPOUND": "CC1=C(C(=O)Nc2ccccc2)C(c2ccc(C(C)C)cc2)C(C(=O)Nc2ccccc2)=C(C)N1", "ENDPOINT RESULT": "29.4 µM (inactive)"}
{"COMPOUND": "CSC1=NN(C(C)=O)C(C(OC(C)=O)C(OC(C)=O)C(OC(C)=O)C(COC(C)=O)OC(C)=O)S1 (stereo not given)", "ENDPOINT RESULT": "> 100 µM (inactive)"}
{"COMPOUND": "O=C(NC1CCCCC1NC(c1ccccc1)(c1ccccc1)c1ccccc1)C(=O)NC1CCCCC1NC(c1ccccc1)(c1ccccc1)c1ccccc1 (stereo not given)", "ENDPOINT RESULT": "> 100 µM (inactive)"}
{"COMPOUND": "CC(C)(C)OC(=O)N/C(C=O)=C\\C1CCCCC1", "ENDPOINT RESULT": "25.1 µM (inactive)"}
{"COMPOUND": "CCCC1C(CC)C(NC)C(C#N)(C#N)C1(C#N)C#N (stereo not given)", "ENDPOINT RESULT": "22.5 µM (inactive)"}
{"COMPOUND": "CCOC1OC(C)(C=C(C#N)C#N)CCC1C (stereo not given)", "ENDPOINT RESULT": "> 57.3 µM (inactive)"}
{"COMPOUND": "COC(=O)C(/C(=N/N)C(=O)Nc1cccc(O)c1)c1nc2ccccc2nc1O (stereo not given)", "ENDPOINT RESULT": "> 100 µM (inactive)"}
